Test: Pharmacokinetic profile of a SOMATULINE/DECAPEPTYL composition in beagle dogs (RIA of blood samples)
Type: in vivo
Settings: dog, in vivo; TIME 57.04 days; beagle dogs; 0.15 ml Example 1 semisolid mixture injected; read-out: concentration in blood samples (RIA)
Source text: Once a particular peptide or peptide salt is found to gel in an in vitro assay, e.g., an assay as described above, an in vivo assay can be used to determine the suitability of that peptide salt for use as a sustained-release carrier peptide of a therapeutic agent or agents in animals or humans. […] The suitability of a particular peptide gel, or a peptide/carrier gel, for therapeutic delivery of the carrier peptide and/or therapeutic agent or agents can thus be determined. […]
measurement.name: level at 1368.96 h (ng/mL)
The reply should contain only the number, in ng/mL.

stdin: Provide one value: measured level at 1368.96 h of CC(C)[C@@H]1NC(=O)[C@H](CCCCN)NC(=O)[C@@H](Cc2c[nH]c3ccccc23)NC(=O)[C@H](Cc2ccc(O)cc2)NC(=O)[C@@H](NC(=O)[C@H](N)Cc2ccc3ccccc3c2)CSSC[C@@H](C(=O)N[C@H](C(N)=O)[C@@H](C)O)NC1=O [SOMATULINE, lanreotide]
stdout: 0.14
